study.target: Recombinant (1-346) HPK1 (h) (Homo sapiens)
Construct: Recombinant (1-346) HPK1 (h) is incubated with 8 mM MOPS pH 7.0
Sequence (Q92918 1-346): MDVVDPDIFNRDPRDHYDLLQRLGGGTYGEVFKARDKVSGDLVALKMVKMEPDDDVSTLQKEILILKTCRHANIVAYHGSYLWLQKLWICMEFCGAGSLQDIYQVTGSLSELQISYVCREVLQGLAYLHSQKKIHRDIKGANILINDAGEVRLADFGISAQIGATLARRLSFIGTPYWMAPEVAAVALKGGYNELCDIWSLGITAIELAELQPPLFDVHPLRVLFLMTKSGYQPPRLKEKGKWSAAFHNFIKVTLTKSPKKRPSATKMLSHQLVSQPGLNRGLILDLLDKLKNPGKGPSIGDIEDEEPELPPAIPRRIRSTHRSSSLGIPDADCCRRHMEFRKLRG
assay.comment: HPK1 Human STE Kinase Enzymatic Radiometric Assay
Assay type: biochemical
experimental.context: read-out: HPK1 IC50 nM Range*
Reported IC50 is given for each of the following molecules.

[
  {
    "molecule": "CC(C)N1CCc2cc(-c3cc(-c4ccc5c(c4)CCNC5=O)c(N)nc3F)ccc2C1 [I-328]",
    "IC50": "11 to 100 nM"
  },
  {
    "molecule": "CC(C)N1CCc2ccc(-c3cc(-c4ccc5c(c4)CCNC5=O)c(N)nc3F)cc2C1 [I-335]",
    "IC50": "11 to 100 nM"
  },
  {
    "molecule": "Nc1nc(F)c(-c2ccc(N3CCOCC3)c(CN3CCC3)c2)cc1-c1cc2c(cc1F)C(=O)NCC2 [I-550]",
    "IC50": "11 to 100 nM"
  }
]

With those in mind, consider the next molecule.
Entry CC(C)N1CCN(c2ccc(-c3cc(-c4cc(F)c5c(c4)CCNC5=O)c(N)nc3F)cc2)CC1 [I-336] : reported IC50 = ?
0.1 to 10 nM

Reference source: patent US20240343704A1
